assay: HEK293 24hr Apoptosis Induction qHTS against the NCATS CANVASS Library (AID 1347359); details: HEK293 caspase-3/7 activation, Caspase-Glo luminescence; series mostly up to 46.1 µM
Records with an inconclusive call do not appear. Activity calls are given as the source filed them. Calls come from the whole dose curve; as a rule, active = well fitted activation curve with a large enough effect; inconclusive = small, poorly fitted or top-dose-only effect; inactive = flat fitted curve, though single readings scatter.
Labels: active, inactive

{"Compound": "C=C[C@@](C)(O)CC[C@@H]1[C@@]2(C)CCCC(C)(C)[C@@H]2CC[C@@]1(C)O", "Category label": "inactive"}
{"Compound": "CC(=O)O[C@H]1c2ccccc2-c2c3c(cc4c2[C@@H]1N(C(C)=O)CC4)OCO3", "Category label": "inactive"}
{"Compound": "CC(C)=CCC[C@]12c3cc4c(cc3CC[C@@]1(C)[C@H](C)CC[C@@H]2O)[nH]c1ccccc14", "Category label": "inactive"}
{"Compound": "CO[C@H]1[C@@H](OC(=O)/C(C)=C\\[C@@H]2O[C@@H]2[C@H]2O[C@H]2C)[C@H](O)[C@H](OCC23C[C@@H]4[C@H](C)CC[C@H]4C4(C=O)CC2C=C(C(C)C)C34C(=O)O)O[C@@H]1C (stereo not given in full)", "Category label": "inactive"}
{"Compound": "CC[C@@H]1[C@H](C)[C@H](c2cc(OC)c(OC)cc2OC)[C@@H](C)[C@H](c2cc(OC)c(OC)cc2OC)[C@]12C=C(OC)C(=O)C=C2OC", "Category label": "inactive"}
{"Compound": "COC(=O)[C@@]12Oc3cccc(O)c3C(O)=C1C(=O)C[C@H](C)[C@H]2O", "Category label": "inactive"}
{"Compound": "COc1ccc([C@@H]2c3cc4c(cc3C(=O)[C@H](C)C2C)OCO4)cc1OC (stereo not given in full)", "Category label": "inactive"}
{"Compound": "C[C@@H]1CC[C@]2(C(=O)O)CC[C@]3(C)C(=C2[C@H]1C)CC[C@@H]1[C@@]2(C)CC[C@H](O)C(C)(C)[C@@H]2CC[C@]13C", "Category label": "inactive"}
{"Compound": "CN1CC[C@@]2([C@@]34CCN(C)[C@@H]3Nc3ccccc34)c3ccccc3N[C@@H]12", "Category label": "inactive"}
{"Compound": "CN1CC[C@]2(c3cccc4c3N[C@H]3N(C)CC[C@@]43[C@]34CCN(C)[C@H]3Nc3ccccc34)c3ccccc3N[C@H]12", "Category label": "inactive"}
{"Compound": "C/C=C(/C)c1c(Cl)c(O)c(C)c2c1Oc1c(Cl)c(O)c(Cl)c(C)c1C(=O)O2", "Category label": "inactive"}
{"Compound": "C=C(C)C(=O)O[C@H]1C[C@@]2(C)OC(=CC2=O)/C(C)=C\\[C@H]2OC(=O)C(=C)[C@H]12", "Category label": "active"}
{"Compound": "CCC(=O)N[C@@H](C[C@H](C)C(Cl)(Cl)Cl)C(=O)N1C(=O)C=C(OC)[C@@H]1C[C@H](C)CCl", "Category label": "inactive"}
{"Compound": "COc1ccc([C@@H]2c3cc4c(cc3C[C@H](C)C2C)OCO4)cc1OC (stereo not given in full)", "Category label": "inactive"}
{"Compound": "COc1cc2oc3ccccc3c(=O)c2cc1OC", "Category label": "inactive"}
{"Compound": "C/C1=C/[C@@H](C)[C@H](O)[C@@H](O)/C=C/CC/C=C/C(=O)O[C@@H]1[C@H](C)C(=O)CCCC1CC(=O)NC(=O)C1", "Category label": "inactive"}
{"Compound": "C=C1C(=O)O[C@H]2[C@H]1CCC(C)=C1CC[C@@](C)(O)[C@@H]12", "Category label": "inactive"}
{"Compound": "CC(C)=CC[C@H]1C[C@@]2(CC=C(C)C)C(=O)[C@](CC=C(C)C)(C(=O)C(C(=O)c3ccccc3)=C2O)C1(C)C", "Category label": "inactive"}
{"Compound": "C/C(=C\\[C@H](C)C(=O)C[C@H](O)CC1CC(=O)NC(=O)C1)[C@@H]1OC(=O)CCCC/C=C/C[C@@H](O)[C@@H]1C", "Category label": "inactive"}
{"Compound": "C[n+]1cc2cc(C(N)=O)[nH]c3c(=N)c(Cl)c(N)c1c23", "Category label": "inactive"}
{"Compound": "CN1CC[C@]23c4ccccc4N[C@H]1[C@]21CCN(C)[C@H]3Nc2ccccc21", "Category label": "inactive"}
{"Compound": "CC(C)=CCC/C(C)=C/Cc1cc([C@@H]2CC(=O)c3c(cc(O)c(CC=C(C)C)c3O)O2)ccc1O", "Category label": "inactive"}
{"Compound": "COc1c(O)cc(O)c2c(=O)cc(-c3ccccc3)oc12", "Category label": "inactive"}
{"Compound": "CC[C@H](O)CCCCC[C@@H]1NC(=O)[C@H]2CCCCN2C(=O)[C@H]([C@H](C)CC)NC(=O)[C@H](Cc2cn(OC)c3ccccc23)NC1=O", "Category label": "inactive"}
{"Compound": "CC1=C(C)C(=O)OC(C(C)C2(O)CCC3C4C5OC5C5(O)CC=CC(=O)C5(C)C4CCC32C)C1 (stereo not given)", "Category label": "inactive"}
{"Compound": "C[C@]12CC[C@]3(C1)[C@H](CC2=O)C[C@@H](OC(=O)c1ccccc1)[C@H]1[C@](C)(C(=O)O)CCC[C@@]13C", "Category label": "inactive"}
{"Compound": "O=C(OC[C@H]1O[C@@H](OC(=O)c2cc(O)c(O)c(O)c2)[C@H](OC(=O)c2cc(O)c(O)c(O)c2)[C@@H](OC(=O)c2cc(O)c(O)c(O)c2)[C@@H]1OC(=O)c1cc(O)c(O)c(O)c1)c1cc(O)c(O)c(O)c1", "Category label": "inactive"}
{"Compound": "COc1ccc2[nH]c3c(c2c1)CCN1C[C@H]2C[C@@H](OC(=O)c4cc(OC)c(OC)c(OC)c4)[C@H](OC)[C@@H](OC)[C@H]2C[C@H]31", "Category label": "inactive"}
{"Compound": "C[C@H](CCC(O)C(C)(O)CO)[C@@]1(O)CC[C@@]2(C)C3=C(CC[C@@]21C)[C@@]1(C)CCC(OC(=O)CCC(=O)O)C(C)(C)[C@@H]1CC3 (stereo not given in full)", "Category label": "inactive"}
{"Compound": "COC(=O)c1cc2cc3c(c(O)c2c(=O)o1)OC1(CC3)CC2=C(O1)C(=O)c1c(O)c(OC)cc(OC)c1C2=O (stereo not given)", "Category label": "inactive"}
